System: HCC1569
measurement-notes: H1.0 immunofluorescence intensity relative to DMSO (% of DMSO); higher = stronger H1.0 induction, active = 140 or more
measurement-setup: concentration: 10 µM; 24 h
Please respond with reported H1.0 immunofluorescence intensity for every item in the list.
Respond numerically, and do not add a unit to the figure.

Requested read-out: H1.0 immunofluorescence intensity. Entry: `CC(C)(C)C(=O)OCOC(=O)[C@@H]1N2C(=O)[C@@H](/N=C/N3CCCCCC3)[C@H]2SC1(C)C`
115

Given O=C(CCNNC(=O)c1ccncc1)NCc1ccccc1 [Nialamide] , state its recorded H1.0 immunofluorescence intensity.
100

Field request: H1.0 immunofluorescence intensity | item: `Cc1cccc(C=Cc2ccccc2)n1`
100

Return reported H1.0 immunofluorescence intensity; argument: NC(=O)c1cc[n+](CC2=C(C(=O)[O-])N3C(=O)C(NC(=O)C(c4ccccc4)S(=O)(=O)[O-])C3SC2)cc1.[Na+] (centres undefined) [Cefsulodin sodium salt hydrate]
94.3

Item CC(=O)NC(CS)C(=O)O (centres undefined) has what recorded H1.0 immunofluorescence intensity?
90.6

Param item = `CC(C)NNC(=O)c1ccncc1` ; retrieve measured H1.0 immunofluorescence intensity.
112

Can you share its H1.0 immunofluorescence intensity? I mean this molecule: `CC(=O)NNC(=O)N1Cc2ccccc2Oc2ccc(Cl)cc21`
103

Name the recorded H1.0 immunofluorescence intensity for CC1(COc2ccc(CC3SC(=O)NC3=O)cc2)CCCCC1 (centres undefined) .
96.6

Consider the molecule `O=c1cc(-c2ccccc2)oc2cc(O)c(O)c(O)c12` and give its measured H1.0 immunofluorescence intensity.
99.6

* * *

Test system: TDF
measurement-notes: cell number relative to DMSO (% of DMSO); higher = more cells (less growth inhibition / toxicity)
measurement-setup: concentration: 10 µM; 24 h
parameter-measured: cell number
Please give only the number in your answer, with no unit.

Give recorded cell number with TDF for the following molecule: C=CCN1CCc2cc(O)c(O)cc2C(c2ccccc2)C1 (racemic)
108

// fetch TDF cell number for CCCCCCCCCCCCCCCCCCc1ccc(C(=O)/C=C/C(=O)O)cc1 [(2E)-4-(4-octadecylphenyl)-4-oxo-2-butenoic acid]
105

Report cell number for Cn1c(=O)c2[nH]cnc2n(C)c1=O [Aminophylline] tested on TDF.
115

Identify the measured cell number of Cc1ccccc1CNc1ncnc2c1ncn2C1OC(CO)C(O)C1O (stereo not drawn) [Metrifudil] for TDF.
94.5

What is its cell number for TDF? Entry: Cc1cc(C(C)(C)C)cc(C)c1CC1=NCCN1.Cl [Xylometazoline hydrochloride]
93.3

Observed cell number on TDF for CCCCCCCC(=O)c1c(O)cc(O)cc1CC(=O)OCC [ethyl (3,5-dihydroxy-2-octanoylphenyl)acetate] , please.
106

What measured cell number is associated with CN(C)c1ccc(C2Nc3ccc4ccccc4c3C3=C2C(=O)CC(C)(C)C3)cc1Br (stereo not drawn) on TDF?
79.3

What is its cell number for TDF? Entry: `CC(=O)O/N=C1\C(=O)N(Cc2cc(Cl)ccc2Cl)c2ccc(Cl)cc21`
107

* * *

Test system: TDF
measurement-notes: cell number relative to DMSO (% of DMSO); higher = more cells (less growth inhibition / toxicity)
measurement-setup: concentration: 10 µM; 24 h
Consider the following compounds; for each one, report its cell number.

Query cell number on TDF for CC(Cc1ccccc1)Nc1ncnc2c1ncn2C1OC(CO)C(O)C1O (stereo not drawn) [R(-)-N6-(2-Phenylisopropyl)adenosine]
96.5

// lookup cell number | system=TDF | key= CCCCCCCCCCCCCCCC(O)C(N)CO (racemic) [DL-erythro-Dihydrosphingosine]
87.8

Any idea what cell number came out for `COC1=C(OC)C(=O)C(CCCCCCCCCCO)=C(C)C1=O` on TDF?
96

Form: Entry = CCCCCCCCCCCC=CCCCCCCC(=O)O [8(Z)-Eicosenoic acid] | System = TDF | cell number = ____
105

Param readout = cell number; param system = TDF; param query = `CC[n+]1c(C=CN(C)c2ccccc2)n(-c2ccccc2)c2ccc(-c3nc4ccccc4s3)cc21.[I-]` ; response: value
21.3

Test system TDF; read-out cell number; what value for CN1CCN(CCCN2c3ccccc3Sc3ccc(C(F)(F)F)cc32)CC1.Cl.Cl [Trifluoperazine.2HCl] ?
108

Identify the measured cell number of CS(=O)(=O)O.Cc1ccc(N(CC2=NCCN2)c2cccc(O)c2)cc1 [Phentolamine mesylate] for TDF.
105

Return cell number measured with TDF given this compound: `CCCCCCCCCCCCCCCCCC(=O)O`
101

* * *

For each entry below, report its cell number value.
System: HCC1569
measurement-notes: cell number relative to DMSO (% of DMSO); higher = more cells (less growth inhibition / toxicity)
measurement-setup: concentration: 10 µM; 24 h
Form field (numeric): enter value without unit.

Bench note: what cell number did NC(=O)c1ncn(C2OC(CO)C(O)C2O)n1 (centres undefined) show?
97.5

So what's the measured cell number for this one? `CN1CCN(c2c(F)cc3c(=O)c(C(=O)O)cn4c3c2SCC4)CC1`
107

For the compound shown here, CC(C)NCC(O)COc1ccc(CC(N)=O)cc1 (racemic) , give the reported cell number.
109

Item `COc1ccc(-c2coc3cc(O)ccc3c2=O)cc1` has what recorded cell number?
104

Item under review: `CCOC(=O)C=Cc1ccc(O)c(OC)c1` . Reported cell number?
98.3

Using the record for `OCc1c[nH]c2ccccc12` , report its cell number.
97.5

Given the entry `COc1cc2ncnc(Sc3nnc(C)s3)c2cc1OC` , report its measured cell number.
63.3

// lookup cell number for CC(C)(C)c1ccc(C(O)CCCN2CCC(C(O)(c3ccccc3)c3ccccc3)CC2)cc1 (centres undefined)
92.7

Param item = `COc1ccc(S(=O)(=O)Nc2nc(-c3cccc([N+](=O)[O-])c3)cs2)cc1OC` ; retrieve measured cell number.
102

# input compound: CC(C)CC(NC(=O)C(O)C(N)Cc1ccccc1)C(=O)O.Cl (centres undefined) [Epibestatin hydrochloride] ; wanted: its cell number
105

For the compound shown here, `CN(CC=CC#CC(C)(C)C)Cc1cccc2ccccc12.Cl` , give the reported cell number.
96.4

Sample `O=C(CO)N1CCC(c2[nH]nc(-c3ccc(Cl)cc3)c2-c2ccncn2)CC1` — what was its cell number?
93.2

What value of measured cell number is listed for `Cc1nc(C)c(C)nc1C` ?
106

Which measured cell number value corresponds to `Cl.Nc1cc(Nc2ccc(S(N)(=O)=O)cc2)ncn1` ?
100

Which cell number is listed for CCn1cc(C(=O)O)c(=O)c2cc(F)c(N3CCN(C)CC3)cc21.CS(=O)(=O)O.O.O [Pefloxacine mesylate dihydrate] ?
103

Quick one: cell number for Cn1nnc2c(C(N)=O)ncn2c1=O [Temozolomide] ?
105

// lookup cell number for CNc1ncnc2c1ncn2C1CC(OP(=O)([O-])O)C(COP(=O)([O-])O)O1.[NH4+].[NH4+] (centres undefined)
104

What does the record list as cell number for CN(C)CCCn1cc(C2=C(c3c[nH]c4ccccc34)C(=O)NC2=O)c2ccccc21 [Bisindolylmaleimide I] ?
85.8

Query: cell number; subject: CC(=O)OCC1(O)CC23CCC4c5ccoc5CCC4(C)C2CCC1C3 (centres undefined) [Cafestol acetate]
103

* * *

Tested on: TDF
measurement-notes: cell number relative to DMSO (% of DMSO); higher = more cells (less growth inhibition / toxicity)
measurement-setup: concentration: 10 µM; 24 h
Exercise: state measured cell number for each of the molecules provided.

Item under review: O=c1[nH]c(=O)n(C2CC(O)C(CO)O2)cc1F (centres undefined) [Floxuridine] . Reported cell number?
61.1

Entry CCn1cc(C(=O)O)c(=O)c2cc(F)c(N3CCN(C)CC3)cc21.CS(=O)(=O)O.O.O [Pefloxacine mesylate dihydrate] : reported cell number = ?
111

// returns reported cell number for input `O=C(Nc1cccc(Nc2ncc(Br)c(NCCc3cnc[nH]3)n2)c1)N1CCCC1`
33.8

Query (molecule): CC(CN1c2ccccc2Sc2ccccc21)N(C)C.Cl (centres undefined) ; field requested: cell number
105

I'd like to know its cell number. The molecule in question is C#CC1(O)CCC2C3CCC4=Cc5oncc5CC4(C)C3CCC21C (centres undefined) [Danazol]
98.4

Give the measured cell number of Cc1cc(C(C)(C)C)c(O)c(C)c1CC1=NCCN1.Cl [Oxymetazoline hydrochloride] .
107

What value of cell number has been recorded for this entry: Cn1c(=O)c2c(ncn2CC2OCCO2)n(C)c1=O [Doxofylline]
106

Look at this molecule and give its reported cell number. `CN(C)C(=O)COC(=O)Cc1ccc(OC(=O)c2ccc(N=C(N)N)cc2)cc1.CS(=O)(=O)O`
115

Endpoint output: cell number of CC1(C)CCC2=C(O1)c1ccccc1C(=O)C2=O [beta-Lapachone] . Value?
25.4

# input molecule: COc1ccc2cc1Oc1ccc(cc1)CC1c3cc(c(OC)cc3CCN1C)Oc1c(OC)c(OC)cc3c1C(C2)N(C)CC3 (centres undefined) [Isotetrandrine] ; wanted: its cell number
83.8

Need cell number, item CN1CCN(c2c(F)cc3c(=O)c(C(=O)O)cn4c3c2SCC4)CC1 [Rufloxacin]
94.7

GET /values?readout=cell number&item= Cl.Clc1ccc2nsnc2c1NC1=NCCN1 [Tizanidine.HCl]
116

Quick one: cell number of CN(Cc1cnc2nc(N)nc(N)c2n1)c1ccc(C(=O)NC(CCC(=O)O)C(=O)O)cc1 (centres undefined) [Methotrexate] ?
86.5

Name the recorded cell number for CC(=O)Nc1ccc(CC(=O)O)cc1 [Actarit] .
103

Which cell number value belongs to CC1=NS(=O)(=O)c2cc(Cl)ccc2N1 [Diazoxide] ?
111

Which measured cell number value corresponds to CCCCCC(O)C=CC=CCC=CC=CC(O)CCCC(=O)O (centres undefined) ?
98.1

For the molecule shown here, COc1cc(CNC(=O)CCCCCCC(C)C)ccc1O [Dihydrocapsaicin] , give the reported cell number.
101

Query (molecule): C=C(C)C1CC=C(C(=O)O)CC1 (centres undefined) [Perillic acid] ; field requested: cell number
98.7

Which measured cell number value corresponds to CC1(C)OC2CC3C4CC(F)C5=CC(=O)C=CC5(C)C4(F)C(O)CC3(C)C2(C(=O)CO)O1 (centres undefined) [Fluocinolone acetonide] ?
96.3
